# Test system: HIV-1(IIIB)
# ASSAY PROTOCOL: HIV-1(IIIB)-induced cytopathicity in CEM cell cultures
# Type: cell-based
# CONDITION DETAILS: HIV-1(IIIB)-induced cytopathicity in CEM cell cultures; Table 1
TEST READOUT: EC50 HIV-1 (CEM) (µg/mL)
Only the number, expressed in µg/mL, is required.

MOLECULE	UNITS OF MEASURE	MEASURED VALUE
C[C@H](Cn1cnc2c(N)ncnc21)OCP(=O)(O)O [(R)-PMPA, reference compound]	µg/mL	0.36
C[C@@H](COc1cc(N)nc(N)n1)OCP(=O)(O)O	µg/mL	51

Here is another molecule to look at.
Per the records, this molecule ( "C[C@H](COc1cc(N)nc(N)n1)OCP(=O)(O)O" ) has EC50 HIV-1 (CEM) equal to 1.8
